Each recorded value in this set is attributed to paper PMC4383003.

- System: A2780 ovarian cancer cells
- test name: Cell viability on co-administration of Ru complexes (1/3 x IC50) with formate or acetate
- Format: cell-based, human
- test conditions: A2780, complex 1/3 x IC50, 24 h, formate 1 mM
- Protocol: Cell viability assays were carried out with complexes 1–8 in A2780 ovarian cancer cells. […] The experiments included 48 h of pre-incubation and 72 h of drug recovery, both in drug-free medium at 310 K in a 5% CO2 humidified atmosphere. All the experiments were performed as duplicates of triplicates in independent experiments and the error bars were calculated as the standard deviation from the mean. […]
Entries and their measured Cell viability follow.
The figure you give is taken to be in %; do not add the unit.

CS(=O)(=O)[N-]CCN.Cc1ccc(C(C)C)cc1.[Cl-].[Ru+2] [Complex 1, [(p-cym)Ru(MsEn)Cl]]: 40.0
NCC[N-]S(=O)(=O)c1ccc(C(F)(F)F)cc1.[Cl-].[Ru+2].c1ccc(-c2ccccc2-c2ccccc2)cc1 [Complex 7, [(o-terp)Ru(TfEn)Cl]]: 11.9

// switching to the query compound
Consider the compound shown here: CS(=O)(=O)[N-]CCN.[Cl-].[Ru+2].c1ccc(-c2ccccc2-c2ccccc2)cc1 [Complex 5, [(o-terp)Ru(MsEn)Cl]] What is its recorded Cell viability?
44.2
